Origin of measurements: patent US20150329642A1

The binders listed here are annotated with their residual binding, % of no competitor.
Molecular target: T1, cMetECDHis (human, UniProt P08581 25-932, limits assumed, biotinylated in the cross-block ELISA of Example 17)
T1 construct: Expressed in HEK-293F cells; also called soluble cMetECDHis; biotinylated cMetECDHis
Assay: cross-block ELISA; competitor 101
Experimental: First, the optimal coating concentrations of the tested anti-c-Met antibodies and the optimal cMetECDHis concentration were determined. Therefore, ELISA wells were coated overnight at 4° C. with anti-c-Met HuMabs serially diluted in PBS (8 μg/mL in 2-fold dilutions). […] ELISA wells were coated with anti-c-Met antibody at a sub-optimal dose as described above. […] Residual binding was expressed as a percentage relative to the binding observed in the absence of competitor antibody.
Write it as a number; the unit % goes unstated.

Below are worked cases with known answers.
anti-c-Met HuMab 008 (IgG1) (antibody, V domains shown, also called TH1016-008; PC1016-008) VH: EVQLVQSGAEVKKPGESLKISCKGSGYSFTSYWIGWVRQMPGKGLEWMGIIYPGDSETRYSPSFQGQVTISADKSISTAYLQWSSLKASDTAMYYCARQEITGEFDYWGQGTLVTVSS VL: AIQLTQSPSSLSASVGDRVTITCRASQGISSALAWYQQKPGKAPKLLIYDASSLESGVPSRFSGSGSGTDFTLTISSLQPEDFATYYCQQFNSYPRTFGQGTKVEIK :: 101
anti-c-Met HuMab 045 (IgG1) (antibody, V domains shown, also called TH1016-045; PC1016-045) VH: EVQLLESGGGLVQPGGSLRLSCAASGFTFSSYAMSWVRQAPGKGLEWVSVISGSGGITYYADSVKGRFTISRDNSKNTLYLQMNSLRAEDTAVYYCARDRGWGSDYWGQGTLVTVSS VL: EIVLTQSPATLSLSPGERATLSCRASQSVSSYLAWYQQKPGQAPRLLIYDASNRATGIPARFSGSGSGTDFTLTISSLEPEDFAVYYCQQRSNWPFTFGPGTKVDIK :: 102

Please look at the following binder next.
**Query** Let me know recorded residual binding, % of no competitor for IgG1-1016-022 (antibody, V domains shown, also called TH1016-022; PC1016-022) VH: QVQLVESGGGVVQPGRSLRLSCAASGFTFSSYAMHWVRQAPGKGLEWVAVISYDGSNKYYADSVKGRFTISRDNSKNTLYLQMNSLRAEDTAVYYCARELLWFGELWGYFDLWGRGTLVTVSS VL: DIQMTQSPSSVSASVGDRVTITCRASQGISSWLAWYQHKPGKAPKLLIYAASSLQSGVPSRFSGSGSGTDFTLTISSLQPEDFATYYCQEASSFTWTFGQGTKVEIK , thanks.
**Result** 104
